- MEASURED_ON: C-X-C chemokine receptor type 4 (Homo sapiens, UniProt P61073, Y256A)
- Sequence (P61073 whole entry Y256A, the tested form may be a part): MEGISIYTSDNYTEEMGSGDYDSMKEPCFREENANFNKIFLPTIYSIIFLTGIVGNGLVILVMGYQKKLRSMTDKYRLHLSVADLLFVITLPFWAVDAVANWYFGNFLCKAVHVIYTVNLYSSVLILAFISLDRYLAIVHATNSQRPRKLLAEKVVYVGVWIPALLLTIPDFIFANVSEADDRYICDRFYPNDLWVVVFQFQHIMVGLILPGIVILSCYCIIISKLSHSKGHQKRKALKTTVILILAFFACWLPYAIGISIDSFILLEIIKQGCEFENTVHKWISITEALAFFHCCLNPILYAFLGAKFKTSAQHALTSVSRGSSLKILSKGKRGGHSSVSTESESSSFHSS
- PROCEDURE_DETAILS: Displacement of [125I]12G5 antibody from transmembrane domain 6 of human CXCR4 Y256A mutant expressed in COS7 cells
RECORDED_METRIC: Ki (nM)
Write down the numeric answer in nM and omit the unit.

# value of Ki, C-X-C chemokine receptor type 4 (Homo sapiens, UniProt P61073, Y256A), item c1ccc(CNCc2ccc(CN3CCCNCCNCCCNCC3)cc2)nc1 = 320

###

- MEASURED_ON: C-X-C chemokine receptor type 4 (Homo sapiens, UniProt P61073, Q200W)
- Sequence (P61073 whole entry Q200W): as the sequence (P61073 whole entry Y256A, the tested form may be a part) above, with Q200W, A256Y counted along it
- PROCEDURE_DETAILS: Antagonist activity at human CXCR4 Q200W mutant expressed in COS7 cells coexpressing G protein Gqi4myr assessed as inhibition of CXCL12-induced phosphatidylinositol turnover
- Type: functional, cell-based, COS-7
Ki by entry:
Write your answer as a measured quantity: the number, then the unit.

c1ccc(CNCc2ccc(CN3CCCNCCNCCCNCC3)cc2)nc1 : 0.22 µM
c1ccc(CNCc2ccc(CN3CCCNCCNCCCNCC3)cc2)cc1 : 7.2 µM

Lab book: Ki of Cc1ccc(CN2CCCNCCNCCCNCC2)cc1 noted as 60 µM

###

- MEASURED_ON: C-X-C chemokine receptor type 4 (Homo sapiens, UniProt P61073, H203A)
- Sequence (P61073 whole entry H203A): as the sequence (P61073 whole entry Y256A, the tested form may be a part) above, with H203A, A256Y counted along it
- PROCEDURE_DETAILS: Antagonist activity at human CXCR4 H203A mutant expressed in COS7 cells coexpressing G protein Gqi4myr assessed as inhibition of CXCL12-induced phosphatidylinositol turnover
- Assay type: functional, cell-based, COS-7
pKi by entry:
// pKi is dimensionless: -log10 of concentration (M)

c1ccc(CNCc2ccc(CN3CCCNCCNCCCNCC3)cc2)nc1 : 7.40
c1ccc(CNCc2ccc(CN3CCCNCCNCCCNCC3)cc2)cc1 : 5.14

Lab book: pKi of Cc1ccc(CN2CCCNCCNCCCNCC2)cc1 noted as 4.49

###

- MEASURED_ON: C-X-C chemokine receptor type 4 (Homo sapiens, UniProt P61073, I284A)
- Sequence (P61073 whole entry I284A, the tested form may be a part): as the sequence (P61073 whole entry Y256A, the tested form may be a part) above, with A256Y, I284A counted along it
- PROCEDURE_DETAILS: Displacement of [125I]12G5 antibody from transmembrane domain 7 of human CXCR4 I284A mutant expressed in COS7 cells
- Format: cell-based, COS-7
RECORDED_METRIC: pKi
// pKi is dimensionless: -log10 of concentration (M)

# value of pKi, C-X-C chemokine receptor type 4 (Homo sapiens, UniProt P61073, I284A), item c1ccc(CNCc2ccc(CN3CCCNCCNCCCNCC3)cc2)nc1 = 4.34

###

- MEASURED_ON: C-X-C chemokine receptor type 4 (Homo sapiens, UniProt P61073, S263A)
- PROCEDURE_DETAILS: Displacement of [125I]12G5 antibody from transmembrane domain 6 of human CXCR4 S263A mutant expressed in COS7 cells
- Assay type: cell-based, COS-7
RECORDED_METRIC: Ki (nM)
Write down the numeric answer in nM and omit the unit.

# value of Ki, C-X-C chemokine receptor type 4 (Homo sapiens, UniProt P61073, S263A), item c1ccc(CNCc2ccc(CN3CCCNCCNCCCNCC3)cc2)nc1 = 530

###

- MEASURED_ON: C-X-C chemokine receptor type 4 (Homo sapiens, UniProt P61073, D182A)
- Sequence (P61073 whole entry D182A): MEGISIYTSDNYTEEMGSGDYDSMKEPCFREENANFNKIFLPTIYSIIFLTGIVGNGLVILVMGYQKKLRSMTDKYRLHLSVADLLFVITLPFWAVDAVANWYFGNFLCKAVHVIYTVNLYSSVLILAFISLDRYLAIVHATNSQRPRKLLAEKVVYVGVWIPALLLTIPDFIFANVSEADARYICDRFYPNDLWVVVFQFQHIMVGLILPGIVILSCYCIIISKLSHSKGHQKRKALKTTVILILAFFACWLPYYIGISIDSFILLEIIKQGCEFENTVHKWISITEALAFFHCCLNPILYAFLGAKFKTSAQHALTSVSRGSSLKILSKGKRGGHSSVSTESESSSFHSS
- PROCEDURE_DETAILS: Displacement of [125I]12G5 antibody from extracellular loop 2 of human CXCR4 D182A mutant expressed in COS7 cells
RECORDED_METRIC: pKi
// pKi is dimensionless: -log10 of concentration (M)

Lab book: pKi of c1ccc(CNCc2ccc(CN3CCCNCCNCCCNCC3)cc2)nc1 noted as 7.40
